Value source: patent US9266815B2

Test system: L3.6pl cells
protocol_details: Cytotoxicity IC50 and MTD determination in L3.6pl cells
Format: cell-based
measurement_context: 48 h at 37° C.; 250 μM AG 24 h prior to drug addition
property_measured: IC50
Write the quantity with the unit trailing the number.

Q. Report the value of IC50 obtained on L3.6pl cells for NCCCNCCCNC1CCCCCCCCCCCCCC1 [Compound 46a] .
A. 2.81 µM

====

Test system: L3.6pl cells
protocol_details: Wound healing assay (cell migration)
Format: cell-based, human
measurement_context: 0.6 μM; 48 h; 250 μM AG
Each entry below lists one item and its recorded % Cell Migration value.

Please review the entries below; each comes with its answer.
INSERT INTO assay_data (molecule, system_under_test, property_measured, recorded_result) VALUES
  ('NCCCNCCCNC1CCCCCCCCCCCCCC1 [Compound 46a]', 'L3.6pl cells', '% Cell Migration', '38.2 (±2.5) %'),
  ('NCCCCNCCCCNC1CCCCCCCCCCCCCC1 [Compound 46b]', 'L3.6pl cells', '% Cell Migration', '32.5 (±4.3) %'),
  ('NCCCCNCCCCNCC1CCCCCCCCCCCCCC1 [Compound 47b]', 'L3.6pl cells', '% Cell Migration', '33.4 (±1.8) %'),
  ('NCCCNCCCNCC1CCCCCCCCCCCCCC1 [Compound 47a]', 'L3.6pl cells', '% Cell Migration', '29.2 (±3.2) %');

Could you now look at the following molecule, please?
Q. Give reported % Cell Migration value for NCCCNCCCN1CCCCCCCCCCCCCC1 [Compound 44a, dihydromotuporamine C, reference compound]
A. 37.8 (±3.3) %
